System tested: Tyrosine-protein kinase JAK3 (Homo sapiens)
Condition context: at 1 µM
Description: GSK_PKIS: JAK3 mean inhibition at 1 uM [Nanosyn]
Below: a set of entries, each annotated with reported inhibition.
Reported property: inhibition (%)

1) CN(C)c1ccc2c(c1)/C(=C/Nc1ccc(S(N)(=O)=O)cc1)C(=O)N2	20.4
2) COc1cc2ncn(-c3cc(OCc4ccccc4C(F)(F)F)c(C(C)=O)s3)c2cc1OC	-1.59
3) O=C1NC(=O)C(c2cccc(Cl)c2)=C1Nc1ccc(Cl)c(C(=O)O)c1	9.29
4) O=C1Nc2ccccc2/C1=C/Nc1ccc(-n2cncn2)cc1	6.49
5) O=C(Nc1ccc(Oc2ccc3[nH]c(NC(=O)c4ccccc4)nc3c2)cc1)Nc1cc(C(F)(F)F)ccc1F	9.29
6) CCN(CC)Cc1ccc(Nc2nccc(-c3cnn4ncccc34)n2)cc1	14.2
7) O=C(Nc1n[nH]c2cc(-c3ccccc3)ccc12)C1CC1	0.16
8) COc1ccc2cc(-c3c(-c4ccncc4)nc(-c4ccc(S(C)(=O)=O)cc4C)n3C)ccc2c1	-0.93
9) COc1cc(C)c(N(C)C(=O)CN(C)C)cc1Nc1nc(Nc2cccc(F)c2C(N)=O)c2cc[nH]c2n1	-3.47
10) NC(=O)c1cc(-c2ccc(F)cc2)cc(-c2ccncc2)c1N	-2.1
11) NCc1ccc(-n2c(-c3nonc3N)nc3cnccc32)cc1	1.57
12) Clc1ccc(CNc2nccc(-c3cnn4ncccc34)n2)cc1	2.94
